Target: UniProt:Q9Y5Y9
Sequence (Q9Y5Y9 whole entry): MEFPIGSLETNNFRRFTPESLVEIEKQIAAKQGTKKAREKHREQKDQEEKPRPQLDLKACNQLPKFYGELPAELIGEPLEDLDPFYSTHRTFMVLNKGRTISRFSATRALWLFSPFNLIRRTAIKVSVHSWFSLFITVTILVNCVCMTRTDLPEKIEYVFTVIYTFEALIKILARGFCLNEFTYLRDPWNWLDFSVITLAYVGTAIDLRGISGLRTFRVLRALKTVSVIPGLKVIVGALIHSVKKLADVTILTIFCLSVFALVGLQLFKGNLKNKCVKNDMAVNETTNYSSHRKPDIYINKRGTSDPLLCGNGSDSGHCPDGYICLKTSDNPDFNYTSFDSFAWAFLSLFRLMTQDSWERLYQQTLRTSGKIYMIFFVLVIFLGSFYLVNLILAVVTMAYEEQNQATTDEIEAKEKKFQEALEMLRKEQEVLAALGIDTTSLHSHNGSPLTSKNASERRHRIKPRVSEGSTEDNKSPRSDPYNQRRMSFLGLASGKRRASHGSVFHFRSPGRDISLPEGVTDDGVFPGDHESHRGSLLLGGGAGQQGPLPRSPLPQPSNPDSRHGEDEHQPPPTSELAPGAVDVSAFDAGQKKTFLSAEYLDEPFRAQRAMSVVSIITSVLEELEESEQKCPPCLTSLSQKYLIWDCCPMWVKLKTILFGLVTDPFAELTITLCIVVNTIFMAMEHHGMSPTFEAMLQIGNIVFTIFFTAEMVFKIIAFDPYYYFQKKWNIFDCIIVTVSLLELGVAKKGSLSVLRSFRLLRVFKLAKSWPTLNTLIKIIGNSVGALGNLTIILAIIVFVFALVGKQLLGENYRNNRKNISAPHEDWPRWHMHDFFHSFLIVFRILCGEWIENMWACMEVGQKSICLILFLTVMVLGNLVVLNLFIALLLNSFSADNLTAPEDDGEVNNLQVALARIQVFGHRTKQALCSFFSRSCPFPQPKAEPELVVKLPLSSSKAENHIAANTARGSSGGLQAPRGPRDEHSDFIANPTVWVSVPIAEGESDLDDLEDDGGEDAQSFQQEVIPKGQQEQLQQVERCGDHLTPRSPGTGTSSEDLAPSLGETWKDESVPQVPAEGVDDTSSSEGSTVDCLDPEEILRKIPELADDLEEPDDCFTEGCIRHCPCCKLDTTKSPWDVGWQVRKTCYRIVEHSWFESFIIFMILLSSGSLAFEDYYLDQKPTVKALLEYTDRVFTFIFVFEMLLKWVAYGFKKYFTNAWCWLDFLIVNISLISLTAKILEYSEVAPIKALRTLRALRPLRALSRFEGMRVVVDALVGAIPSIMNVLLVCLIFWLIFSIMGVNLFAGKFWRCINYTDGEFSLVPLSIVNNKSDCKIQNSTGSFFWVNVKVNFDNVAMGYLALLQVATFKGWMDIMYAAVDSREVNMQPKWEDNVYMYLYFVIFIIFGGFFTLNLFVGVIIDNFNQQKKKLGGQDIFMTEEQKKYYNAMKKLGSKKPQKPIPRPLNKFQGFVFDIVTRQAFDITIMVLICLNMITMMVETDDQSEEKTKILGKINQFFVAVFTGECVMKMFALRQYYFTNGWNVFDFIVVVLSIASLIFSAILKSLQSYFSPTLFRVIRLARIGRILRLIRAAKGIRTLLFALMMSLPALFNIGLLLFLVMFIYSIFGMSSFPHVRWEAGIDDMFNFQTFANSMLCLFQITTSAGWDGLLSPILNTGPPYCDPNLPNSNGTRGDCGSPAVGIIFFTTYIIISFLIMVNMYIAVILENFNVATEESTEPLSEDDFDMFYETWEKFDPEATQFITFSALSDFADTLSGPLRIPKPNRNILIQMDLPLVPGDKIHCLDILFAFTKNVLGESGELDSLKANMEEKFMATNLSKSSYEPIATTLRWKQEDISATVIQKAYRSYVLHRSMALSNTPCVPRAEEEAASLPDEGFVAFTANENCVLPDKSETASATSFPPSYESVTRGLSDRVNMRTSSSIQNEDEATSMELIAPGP
Assay: Nav1.8 Qube automated patch-clamp assay
Conditions: Nav1.8 Qube Assay; human Nav1.8 channels stably expressed in HEK 293 cells
pIC50: −log10 of the molar value.
Kindly return Criterion met if reported pIC50 is no lower than 7; return Criterion not met if it is lower.

Below, 8 compounds whose answers are already recorded.
Compound	Category
CS(=O)(=O)c1cccc(NC(=O)c2cc(C(F)(F)F)cnc2N2CCC3(CC3)C(F)(F)C2)c1 [Example 101]	Criterion not met
NS(=O)(=O)c1cccc(NC(=O)c2ccc(Cl)nc2N2CCCCCC2)c1 [Example 89]	Criterion met
NS(=O)(=O)c1cccc(NC(=O)c2cc(F)cnc2N2CCCCC2)c1 [Example 6]	Criterion not met
CC1(C)CCCN(c2ncc(C(F)(F)F)cc2C(=O)Nc2cccc(S(N)(=O)=O)c2)CC1 [Example 80]	Criterion met
Cc1nc2c(o1)CCN(c1ncc(C(F)(F)F)cc1C(=O)Nc1cccc(S(N)(=O)=O)c1)C2 [Example 73]	Criterion not met
Cc1nc(N2CCC3(CC2)CC3)c(C(=O)Nc2cccc(S(N)(=O)=O)c2)c(C)c1Cl [Example 76]	Criterion met
CS(=O)(=O)c1cccc(NC(=O)c2cc(C(F)(F)F)cnc2N2CCCC(F)(F)CC2)c1 [Example 94]	Criterion met
NS(=O)(=O)c1cccc(NC(=O)c2c(Br)ccnc2N2CCCCCC2)c1 [Example 33]	Criterion met

As a next step, examine the compound that follows.
Query :: Please check the record CS(=O)(=O)c1cccc(NC(=O)c2cc(C(F)(F)F)cnc2N2CCC3OCCC32)c1 (centres unmarked) [Example 104] and state if its pIC50 is at or above 7.
Result :: Criterion not met
